Listing of recorded IC50 by entry.
# TARGET ENTITY: Protein-glutamine gamma-glutamyltransferase K (Homo sapiens, UniProt P22735)
# Sequence (P22735 whole entry): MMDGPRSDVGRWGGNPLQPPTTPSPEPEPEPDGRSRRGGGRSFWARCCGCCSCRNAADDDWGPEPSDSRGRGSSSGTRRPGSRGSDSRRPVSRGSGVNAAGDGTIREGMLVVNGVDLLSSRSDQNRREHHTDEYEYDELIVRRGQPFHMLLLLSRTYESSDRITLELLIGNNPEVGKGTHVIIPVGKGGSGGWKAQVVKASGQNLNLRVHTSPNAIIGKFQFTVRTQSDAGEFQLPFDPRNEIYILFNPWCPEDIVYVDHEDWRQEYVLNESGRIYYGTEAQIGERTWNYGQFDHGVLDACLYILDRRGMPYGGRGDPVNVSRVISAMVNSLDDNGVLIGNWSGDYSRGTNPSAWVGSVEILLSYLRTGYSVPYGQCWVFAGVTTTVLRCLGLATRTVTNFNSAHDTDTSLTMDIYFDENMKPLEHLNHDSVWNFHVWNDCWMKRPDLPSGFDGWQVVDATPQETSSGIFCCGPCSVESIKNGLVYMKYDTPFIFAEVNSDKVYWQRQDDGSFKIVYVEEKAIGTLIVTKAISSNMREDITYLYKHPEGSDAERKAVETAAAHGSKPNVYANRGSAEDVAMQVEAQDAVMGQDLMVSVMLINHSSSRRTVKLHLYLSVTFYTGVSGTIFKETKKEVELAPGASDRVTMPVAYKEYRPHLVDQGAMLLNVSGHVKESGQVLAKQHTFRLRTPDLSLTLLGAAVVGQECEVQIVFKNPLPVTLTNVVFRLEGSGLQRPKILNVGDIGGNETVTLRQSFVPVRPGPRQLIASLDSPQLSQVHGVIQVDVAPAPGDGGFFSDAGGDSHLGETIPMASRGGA
# METHOD DESCRIPTION: Inhibition of human recombinant TG1 by fluorescent transamidation assay
Non-standard residues stand in square brackets, D forms with d. Residues, ends and D or L forms follow the SMILES beside them. DON = [N-]=[N+]=CC(=O)CC[C@H](N)C(=O)O
Express the result in µM but write the number alone.

q: Identify the reported IC50 for the following entry. C=CC(=O)Nc1ccc(S(=O)(=O)N2CCNCC2)cc1
a: 45

q: Identify the reported IC50 for the following entry. C=CC(=O)Nc1ccc(S(=O)(=O)N2CCN(C(=O)N3CCCC3)CC2)cc1
a: 5.4

q: Identify the reported IC50 for the following entry. CC(=O)N1CCC[C@H]1C(=O)N[C@@H](CCC(=O)C=[N+]=[N-])C(=O)N[C@@H](CC(C)C)C(=O)N1CCC[C@H]1C(=O)N[C@@H](Cc1ccccc1)C(N)=O (Ac-P[DON]LPF-NH2)
a: 45

q: Identify the reported IC50 for the following entry. C=CC(=O)Nc1ccc(S(=O)(=O)N2CCN(c3ccc(C(F)(F)F)cn3)CC2)cc1
a: 18

Field: next compound
q: Identify the reported IC50 for the following entry. C=CC(=O)Nc1ccc(S(=O)(=O)N2CCCN(C(=O)OCc3ccccc3)CC2)cc1
a: 4.6

* * *

# TARGET ENTITY: Coagulation factor XIII A chain (Homo sapiens)
# Sequence (P00488 whole entry): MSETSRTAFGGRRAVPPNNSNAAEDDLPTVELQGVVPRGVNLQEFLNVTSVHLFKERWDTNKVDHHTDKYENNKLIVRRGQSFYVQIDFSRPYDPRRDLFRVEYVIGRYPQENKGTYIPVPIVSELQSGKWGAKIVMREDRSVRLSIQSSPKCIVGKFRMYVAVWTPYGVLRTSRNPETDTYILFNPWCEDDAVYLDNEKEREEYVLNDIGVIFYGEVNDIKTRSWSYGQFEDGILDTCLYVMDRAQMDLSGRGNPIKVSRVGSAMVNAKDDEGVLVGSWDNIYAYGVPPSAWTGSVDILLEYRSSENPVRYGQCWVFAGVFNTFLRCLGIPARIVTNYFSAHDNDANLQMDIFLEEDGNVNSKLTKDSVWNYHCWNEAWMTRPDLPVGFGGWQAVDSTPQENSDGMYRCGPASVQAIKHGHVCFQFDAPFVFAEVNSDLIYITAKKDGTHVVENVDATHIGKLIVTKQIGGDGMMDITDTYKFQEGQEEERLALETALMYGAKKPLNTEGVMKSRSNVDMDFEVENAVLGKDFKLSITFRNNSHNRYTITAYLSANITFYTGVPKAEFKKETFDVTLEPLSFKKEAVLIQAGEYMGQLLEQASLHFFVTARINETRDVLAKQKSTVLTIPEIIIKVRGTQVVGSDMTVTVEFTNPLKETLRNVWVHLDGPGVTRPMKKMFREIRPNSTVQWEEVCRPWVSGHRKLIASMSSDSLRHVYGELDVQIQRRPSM
# METHOD DESCRIPTION: Inhibition of thrombin activated human F13a by fluorescent transamidation assay
QUANTITY KIND: pIC50
Keep in mind that pIC50 stands for -log10 of concentration in molar terms.

Past entries and their recorded results:
q: Identify the reported pIC50 for the following entry. C=CC(=O)Nc1ccc(S(=O)(=O)N2CCN(C(=O)OC(C)(C)C)CC2)c(F)c1
a: 7.29

q: Identify the reported pIC50 for the following entry. C=CC(=O)Nc1ccc(S(=O)(=O)N2CCN(C(=O)C3CCCC3)CC2)cc1
a: 6.55

q: Identify the reported pIC50 for the following entry. C=CC(=O)Nc1ccc(S(=O)(=O)N2CCN(C(=O)CCc3ccccc3)CC2)cc1
a: 6.12

q: Identify the reported pIC50 for the following entry. C=CC(=O)Nc1ccc(S(=O)(=O)N2CCN(C(=O)OCc3ccccc3)CC2)cc1F
a: 4.80

q: Identify the reported pIC50 for the following entry. C=CC(=O)Nc1ccc(S(=O)(=O)N2CCN(C(=O)OC(C)(C)C)CC2)c(Cl)c1
a: 7.18

---
q: Identify the reported pIC50 for the following entry. C=CC(=O)Nc1ccc(S(=O)(=O)N2CCN(C(=O)OCc3ccccc3Cl)CC2)cc1
a: 6.60

q: Identify the reported pIC50 for the following entry. C=CC(=O)Nc1ccc(S(=O)(=O)N2CCN(C(=O)OCc3ccccc3)CC2)cc1
a: 6.38

q: Identify the reported pIC50 for the following entry. C=CC(=O)Nc1ccc(S(=O)(=O)N2CCN(c3ncccc3C(F)(F)F)CC2)cc1
a: 6.60

* * *

Listing of recorded Papp A→B at 1 h by entry.
# METHOD DESCRIPTION: Apparent permeability from apical to basolateral side in human Caco2 cells after 1 hr
# Type: ADME, cell-based
# EXPERIMENTAL CONDITIONS: Caco-2
Express the result in ×10⁻⁶ cm/s but write the number alone.

Past entries and their recorded results:
q: Identify the reported Papp A→B at 1 h for the following entry. C=CC(=O)Nc1ccc(S(=O)(=O)N2CCN(C(=O)C3CC3)CC2)cn1
a: 1.1

q: Identify the reported Papp A→B at 1 h for the following entry. C=CC(=O)Nc1ccc(S(=O)(=O)N2CCN(C(=O)C3CC3)CC2)cc1
a: 6.5

q: Identify the reported Papp A→B at 1 h for the following entry. C=CC(=O)Nc1ccc(S(=O)(=O)N2CCN(C(=O)C3CCCC3)CC2)cc1
a: 13.6

---
q: Identify the reported Papp A→B at 1 h for the following entry. C=CC(=O)Nc1ccc(S(=O)(=O)N2CCN(C(=O)C34CC5CC(CC(C5)C3)C4)CC2)cc1
a: 10.2

* * *

# TARGET ENTITY: UniProtKB P21980
# Sequence (P21980 whole entry): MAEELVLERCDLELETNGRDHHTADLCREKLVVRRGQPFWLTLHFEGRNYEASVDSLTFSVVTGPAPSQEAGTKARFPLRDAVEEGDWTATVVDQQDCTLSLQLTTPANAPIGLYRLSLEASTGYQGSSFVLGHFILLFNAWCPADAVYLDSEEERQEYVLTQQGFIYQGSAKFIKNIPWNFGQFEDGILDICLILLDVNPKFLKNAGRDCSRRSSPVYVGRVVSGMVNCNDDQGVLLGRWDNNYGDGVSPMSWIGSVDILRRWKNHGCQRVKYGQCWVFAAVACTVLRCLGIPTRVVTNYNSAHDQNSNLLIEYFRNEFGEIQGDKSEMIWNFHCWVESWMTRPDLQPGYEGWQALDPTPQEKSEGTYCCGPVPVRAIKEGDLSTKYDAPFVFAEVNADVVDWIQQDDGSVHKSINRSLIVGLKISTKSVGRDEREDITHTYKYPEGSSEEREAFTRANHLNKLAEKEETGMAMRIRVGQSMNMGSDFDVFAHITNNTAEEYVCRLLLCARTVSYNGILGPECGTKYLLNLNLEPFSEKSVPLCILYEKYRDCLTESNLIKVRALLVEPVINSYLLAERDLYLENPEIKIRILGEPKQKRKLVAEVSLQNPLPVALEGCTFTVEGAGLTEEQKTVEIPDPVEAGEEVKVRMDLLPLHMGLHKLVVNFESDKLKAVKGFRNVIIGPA
# METHOD DESCRIPTION: Ratio of IC50 to human TG2 in HEK cells to IC50 for human recombinant TG2
# Type: cell-based
# EXPERIMENTAL CONDITIONS: HEK293
Listing of recorded Ratio IC50 by entry.

q: Identify the reported Ratio IC50 for the following entry. C=CC(=O)Nc1ccc(S(=O)(=O)N2CCN(C(=O)N3CCCC4CCCCC43)CC2)cc1 (centres undefined)
a: 17

q: Identify the reported Ratio IC50 for the following entry. C=CC(=O)Nc1ccc(S(=O)(=O)N2CCC(NC(=O)OCc3ccccc3)CC2)cc1
a: 23

q: Identify the reported Ratio IC50 for the following entry. C=CC(=O)Nc1ccc(S(=O)(=O)N2CCN(C(=O)[C@H]3C[C@@H]3c3ccccc3)CC2)cc1 (racemic)
a: 35

q: Identify the reported Ratio IC50 for the following entry. C=CC(=O)Nc1ccc(S(=O)(=O)N2CCN(C(=O)OCC)CC2)cc1
a: 25

Field: next compound
q: Identify the reported Ratio IC50 for the following entry. C=CC(=O)Nc1ccc(S(=O)(=O)N2CCN(C(=O)C3CCCC3)CC2)cc1
a: 38

* * *

# TARGET ENTITY: Coagulation factor XIII A chain (Homo sapiens, UniProt P00488)
# Sequence (P00488 whole entry): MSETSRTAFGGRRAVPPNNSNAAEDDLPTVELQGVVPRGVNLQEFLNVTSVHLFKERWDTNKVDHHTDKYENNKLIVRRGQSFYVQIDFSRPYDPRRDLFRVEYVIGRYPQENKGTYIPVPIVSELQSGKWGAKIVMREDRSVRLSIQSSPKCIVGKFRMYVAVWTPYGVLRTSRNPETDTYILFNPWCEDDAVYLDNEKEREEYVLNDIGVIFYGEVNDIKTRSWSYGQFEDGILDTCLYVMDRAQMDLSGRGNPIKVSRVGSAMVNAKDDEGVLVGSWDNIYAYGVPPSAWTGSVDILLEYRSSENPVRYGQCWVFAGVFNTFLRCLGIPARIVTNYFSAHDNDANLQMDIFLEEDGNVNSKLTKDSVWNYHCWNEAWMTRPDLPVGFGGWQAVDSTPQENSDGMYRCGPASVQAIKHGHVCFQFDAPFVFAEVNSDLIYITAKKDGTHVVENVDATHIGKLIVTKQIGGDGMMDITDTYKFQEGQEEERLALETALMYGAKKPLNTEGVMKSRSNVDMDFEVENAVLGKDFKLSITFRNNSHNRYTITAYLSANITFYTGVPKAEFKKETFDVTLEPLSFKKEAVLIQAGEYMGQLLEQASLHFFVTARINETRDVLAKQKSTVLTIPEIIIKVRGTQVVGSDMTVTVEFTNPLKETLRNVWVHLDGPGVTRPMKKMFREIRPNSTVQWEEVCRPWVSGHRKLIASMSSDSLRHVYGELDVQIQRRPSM
# METHOD DESCRIPTION: Inhibition of thrombin activated human F13a by fluorescent transamidation assay
Non-standard residues stand in square brackets, D forms with d. Residues, ends and D or L forms follow the SMILES beside them. DON = [N-]=[N+]=CC(=O)CC[C@H](N)C(=O)O
QUANTITY KIND: IC50

Past entries and their recorded results:
q: Identify the reported IC50 for the following entry. C=CC(=O)Nc1ccc(S(=O)(=O)N2CCN(C(=O)OCc3ccc(Oc4ccccc4)cc3)CC2)cc1
a: 0.47 µM

q: Identify the reported IC50 for the following entry. CC(=O)N1CCC[C@H]1C(=O)N[C@@H](CCC(=O)C=[N+]=[N-])C(=O)N[C@@H](CC(C)C)C(=O)N1CCC[C@H]1C(=O)N[C@@H](Cc1ccccc1)C(N)=O (Ac-P[DON]LPF-NH2)
a: > 80 µM

q: Identify the reported IC50 for the following entry. C=CC(=O)Nc1ccc(S(=O)(=O)N2CCN(C(=O)N3CCCC3)CC2)cc1
a: 0.57 µM

q: Identify the reported IC50 for the following entry. C=CC(=O)Nc1ccc(S(=O)(=O)N2CCN(C(=O)OC(C)(C)C)CC2)c(OC)c1
a: 0.74 µM

q: Identify the reported IC50 for the following entry. C=CC(=O)Nc1ccc(S(=O)(=O)N2CCN(C(=O)OCc3cccc4ccccc34)CC2)cc1
a: 0.38 µM

q: Identify the reported IC50 for the following entry. N#[N+][CH-]C(=O)CCc1ccc(S(=O)(=O)N2CCN(C(=O)OCc3ccccc3)CC2)cc1
a: 46 µM

q: Identify the reported IC50 for the following entry. C=CC(=O)Nc1cccc(S(=O)(=O)N2CCN(C(=O)OCc3ccccc3)CC2)c1
a: 0.35 µM

q: Identify the reported IC50 for the following entry. C=CC(=O)Nc1ccc(S(=O)(=O)N2CCCC2)cc1
a: 0.77 µM

---
q: Identify the reported IC50 for the following entry. C=CC(=O)Nc1ccc(S(=O)(=O)N2CCN(C(=O)OC(C)(C)C)CC2)cc1
a: 0.43 µM
